Biological target: Mu-type opioid receptor (Rattus norvegicus, UniProt P33535)
Sequence (P33535 whole entry): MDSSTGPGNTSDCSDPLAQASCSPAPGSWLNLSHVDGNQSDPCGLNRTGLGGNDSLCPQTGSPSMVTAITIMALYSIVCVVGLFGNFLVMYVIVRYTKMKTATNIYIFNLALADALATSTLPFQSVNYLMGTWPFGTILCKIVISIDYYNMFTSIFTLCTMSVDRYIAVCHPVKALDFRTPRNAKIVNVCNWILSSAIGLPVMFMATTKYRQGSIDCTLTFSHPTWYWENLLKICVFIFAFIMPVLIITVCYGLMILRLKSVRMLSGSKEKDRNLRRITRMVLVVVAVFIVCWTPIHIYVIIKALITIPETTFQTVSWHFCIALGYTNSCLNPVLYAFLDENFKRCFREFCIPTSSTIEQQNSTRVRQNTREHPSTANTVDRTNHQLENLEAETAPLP
Define the label as label 1 when IC50 is strictly less than 20 nM and as label 0 in all remaining cases.

Previously resolved entries follow.
record.smiles	assayed.system	group
C[C@@H](O)[C@H](NC(=O)[C@H]1NC(=O)[C@H]([C@@H](C)O)NC(=O)[C@H](CCCN=C(N)N)NC(=O)[C@@H](Cc2c[nH]c3ccccc23)NC(=O)[C@H](Cc2ccc(O)cc2)NC(=O)[C@@H](NC(=O)[C@H](N)Cc2c[nH]c3ccccc23)CSSC1(C)C)C(N)=O	Mu-type opioid receptor (Rattus norvegicus, UniProt P33535)	label 1
C[C@@H](O)[C@H](NC(=O)[C@H]1NC(=O)[C@H]([C@@H](C)O)NC(=O)[C@H](CCCNC(=N)N)NC(=O)[C@@H](Cc2c[nH]c3ccccc23)NC(=O)[C@H](Cc2ccc(O)cc2)NC(=O)[C@@H](NC(=O)[C@@H](N)[C@@H](C)c2ccccc2)CSSC1(C)C)C(N)=O	Mu-type opioid receptor (Rattus norvegicus, UniProt P33535)	label 0
C[C@@H](O)[C@H](NC(=O)[C@H]1NC(=O)[C@H]([C@@H](C)O)NC(=O)[C@H](CCCNC(=N)N)NC(=O)[C@@H](Cc2c[nH]c3ccccc23)NC(=O)[C@H](Cc2ccc(O)cc2)NC(=O)[C@@H](NC(=O)[C@H](N)[C@@H](C)c2c[nH]c3ccccc23)CSSC1(C)C)C(N)=O	Mu-type opioid receptor (Rattus norvegicus, UniProt P33535)	label 1
C[C@@H](O)[C@H](NC(=O)[C@H]1NC(=O)[C@H]([C@@H](C)O)NC(=O)[C@H](CCCN=C(N)N)NC(=O)[C@@H](Cc2c[nH]c3ccccc23)NC(=O)[C@H](Cc2ccc(O)cc2)NC(=O)[C@@H](NC(=O)[C@H](N)[C@@H](C)c2ccccc2)CSSC1(C)C)C(N)=O	Mu-type opioid receptor (Rattus norvegicus, UniProt P33535)	label 0
C[C@H](c1ccccc1)[C@H](N)C(=O)N[C@H]1CSSC(C)(C)[C@@H](C(=O)N[C@H](C(N)=O)[C@@H](C)O)NC(=O)[C@H]([C@@H](C)O)NC(=O)[C@H](CCCN=C(N)N)NC(=O)[C@@H](Cc2c[nH]c3ccccc23)NC(=O)[C@H](Cc2ccc(O)cc2)NC1=O	Mu-type opioid receptor (Rattus norvegicus, UniProt P33535)	label 0

Task item: Does this molecule meet the criterion IC50 < 20 nM? `C[C@@H](O)[C@H](NC(=O)[C@H]1NC(=O)[C@H]([C@@H](C)O)NC(=O)[C@H](CCCNC(=N)N)NC(=O)[C@@H](Cc2c[nH]c3ccccc23)NC(=O)[C@H](Cc2ccc(O)cc2)NC(=O)[C@@H](NC(=O)[C@@H](N)[C@@H](C)c2c[nH]c3ccccc23)CSSC1(C)C)C(N)=O`
Reply: label 0

* * *

Species on record: Cavia porcellus
Assay: Evaluated for agonist activity as percent inhibition in electrically evoked twitch height in Guinea pig ileum (GPI) at 1 uM concentration of compound
Assay type: functional
Bridge positions count the residues as written; N and C are the ends. Square brackets hold non-standard residues; d marks the D form. Peptide text beside a SMILES is read from it. dTic = O=C(O)[C@H]1Cc2ccccc2CN1; Pen = CC(C)(S)[C@H](N)C(=O)O
value.kind: inhibition at 1 µM (%)
Give bare numbers, in %.

# count of solved cases: 3
molecule	value.kind	data.value
C[C@@H](O)[C@H](NC(=O)[C@H]1NC(=O)[C@H]([C@@H](C)O)NC(=O)[C@H](CCCN=C(N)N)NC(=O)[C@@H](Cc2c[nH]c3ccccc23)NC(=O)[C@H](Cc2ccc(O)cc2)NC(=O)[C@@H](NC(=O)[C@@H](N)[C@@H](C)c2ccccc2)CSSC1(C)C)C(N)=O	inhibition at 1 µM	0
C[C@H](c1ccccc1)[C@@H](N)C(=O)N[C@H]1CSSC(C)(C)[C@@H](C(=O)N[C@H](C(N)=O)[C@@H](C)O)NC(=O)[C@H]([C@@H](C)O)NC(=O)[C@H](CCCN=C(N)N)NC(=O)[C@@H](Cc2c[nH]c3ccccc23)NC(=O)[C@H](Cc2ccc(O)cc2)NC1=O	inhibition at 1 µM	0
C[C@@H](O)[C@H](NC(=O)[C@H]1NC(=O)[C@H]([C@@H](C)O)NC(=O)[C@H](CCCN=C(N)N)NC(=O)[C@@H](Cc2c[nH]c3ccccc23)NC(=O)[C@H](Cc2ccc(O)cc2)NC(=O)[C@@H](NC(=O)[C@H]2Cc3ccccc3CN2)CSSC1(C)C)C(N)=O (H-[dTic]CY[dW]RT[Pen]T-NH2; disulfide 2-7)	inhibition at 1 µM	1

Now, please, on to the next molecule.
Task item: What inhibition at 1 µM value was documented for this molecule, `C[C@@H](O)[C@H](NC(=O)[C@H]1NC(=O)[C@H]([C@@H](C)O)NC(=O)[C@H](CCCN=C(N)N)NC(=O)[C@@H](Cc2c[nH]c3ccccc23)NC(=O)[C@H](Cc2ccc(O)cc2)NC(=O)[C@@H](NC(=O)[C@H]2Cc3c([nH]c4ccccc34)CN2)CSSC1(C)C)C(N)=O` ?
Reply: 18
